- testedTarget: FRMPD4, Q14CM0
- Sequence (Q14CM0 67-160): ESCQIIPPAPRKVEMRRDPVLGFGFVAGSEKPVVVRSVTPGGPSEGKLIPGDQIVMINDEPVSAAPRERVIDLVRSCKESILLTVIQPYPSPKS
- measurementNotes: holdup assay
- Parameters: key: below the threshold = too weak to quantify, mostly under pKd 3.1 to 4
- testParameters: plain residues with an end cap or a label only (N-terminal biotin on a linker: ado-ado)
metric: pKd

As a guide, the following entries are already answered.
>>> datavalue("TPPAAKKSRI [BAZ1A, Q9NRL2]")
"below the threshold"
>>> datavalue("HSGYRLNDYV [CLDN14, O95500]")
3.58
>>> datavalue("NHSSSPETTA [TRMT13, Q9NUP7]")
"below the threshold"
>>> datavalue("SGSLKLMTTV [DACT1, Q9NYF0]")
"below the threshold"
>>> datavalue("TSQESEDTYL [TBC1D10A, Q9BXI6]")
5.3
>>> datavalue("VKPQVSESKL [ACOT8, O14734]")
3.8
>>> datavalue("TLPRKRMSSI [GPRC6A, Q5T6X5]")
"below the threshold"
>>> datavalue("QGLAERISVL [PRKD2, Q9BZL6]")
3.83
>>> datavalue("SSALYGESDL [ACTN2, P35609]")
"below the threshold"
>>> datavalue("IPLDGETEEL [MYOZ1, Q9NP98]")
4.03

Req: Tell me pKd reported for TACCHSETVV [TGFA, P01135]
Resp: below the threshold

Req: Tell me pKd reported for TASPAKETSF [SLC2A7, Q6PXP3]
Resp: below the threshold

Req: Tell me pKd reported for SKENVQETQI [LRRC4B, Q9NT99]
Resp: below the threshold

Req: Tell me pKd reported for RRRESYSTTV [EVI5, O60447]
Resp: 3.79

Req: Tell me pKd reported for QHKTQLQTLI [BPIFA2, Q96DR5]
Resp: below the threshold

Req: Tell me pKd reported for ETQVTAETVI [TMEM225B, P0DP42]
Resp: below the threshold
